# testedSystem: T1, anti-myc antibody coated on the ELISA plate
# T1 construct: also called a-MYC; a-myc
# assayComment: phage ELISA, anti-myc coated
Known OD490 of a selection of binders
propertyLabel: OD490

[
  {
    "binder": "ACVR2B F08 (monoclonal scFv-phage) (scFv, V domains shown, also called F8) VH: VQLVESGGGLVQPGGSLRLSCAASGFTFSDHYMDWVRQAPGKGLEWVGRTRNKANSYTTEYAASVKGRFTISRDDSKNSLYLQMNSLRAEDTAVYYCTKGAWLDYWGQGTLVTVSS VL: IQMTQSPSAMSASVGDRVTITCRASQGISNYLAWFQQKPGKVPKRLIYGASSLQGGVPSRFSGSGSGTEFTLTITSLQPEDFATYFCLQHKSYPLTFGPGTKVEIK",
    "propertyLabel": "OD490",
    "reading": "0.783 OD"
  },
  {
    "binder": "ACVR2B B08 (monoclonal scFv-phage) (scFv, V domains shown, also called B8) VH: VQLVQSGGGLVHPGQSLRLSCTGSGFPFGDYSMTWVRQAPGKGLEWVGLVRSKAYGGTTEYAASVKGRFIMSRDDSRSIAYLQMNSLRAEDTAVYYCARGHYGMDVWGQGTTVTVSS VL: DIQMTQSPSSVSASVGDRVTITCRASQGISNWLAWYQQKPGKAPKLLIYAASSLQSGVPSRFSGSGSGTDFTLTISSLQPEDFATYYCQQAKSYPYTFGQGTKVEIK",
    "propertyLabel": "OD490",
    "reading": "1.16 OD"
  },
  {
    "binder": "ACVR2B D11 (monoclonal scFv-phage) (scFv, V domains shown) VH: MQLVQSGGGLVQPGRSLGLSCTASGFTFGDYAMSWVRQAPGKGLEWVGFIRSKAYGGTTEYAASVKGRLTISRDDSKSIAYLQMNSLRAEDTAVYYCARGHYGMDVWGQGTTVTVSS VL: DIQMTQSPSSLSASVGDRVTITCRASQNISNFLNWYQQKPGKAPKLLIYSASRLQRGVPSRFSGSGSGTDFTLTISSLQPEDFATYYCQQSYSTPYTFGQGTKLEIK",
    "propertyLabel": "OD490",
    "reading": "0.834 OD"
  },
  {
    "binder": "ACVR2B B12 (monoclonal scFv-phage) (scFv, V domains shown) VH: VQLVQSGAEVKKPGESLKISCKTSGYTFTHYWIGWVRQMPGKGLEWMGRINPTDSYADYSPSFQGHVIMSVDKSVSTAYLHWNSLKASDTAMYYCARGTALGVWGQGTTVTVSS VL: IQMTQSPSAMSASVGDRVTITCRASQGISNYLAWFQQKPGKVPKRLIYAASSLQSGVPSRFSGSGSGTEFTLTITSLQPEDFATYYCLQHKSYPYTFGQGTKLEIK",
    "propertyLabel": "OD490",
    "reading": "1.46 OD"
  },
  {
    "binder": "ACVR2B C07 (monoclonal scFv-phage) (scFv, V domains shown, also called C7) VH: QMQLVQSGGGLVKPGGSLRLSCAPSGFTFRDYHMSWIRQAPGKGLEWISNISNSGTNIYYADSVKGRFTISRDNAKNSLYLQMNSLRAEDTAVYYCARGHYGMDIWGQGTTITVSS VL: DIQMTQSPSSLSASVGDRVTITCRASQGIANYLAWYQQKPGKAPKLLIYAASTLQSGVPSRFSGSGSGTDFTLTISSLQPEDFATYYCQQVKSYPLSFGGGTKVEIK",
    "propertyLabel": "OD490",
    "reading": "0.441 OD"
  }
]
